Measured glass transition temperature, listed per entry.
± gives the standard deviation of the reports.

[
  {
    "MOLECULE": "*c1ccc2c(c1)C(=O)N(c1cccc(C(=O)Nc3ccc(Oc4ccc(C(c5ccc(Oc6ccc(NC(=O)c7cccc(N8C(=O)c9ccc(C(*)(C(F)(F)F)C(F)(F)F)cc9C8=O)c7)cc6)cc5)(C(F)(F)F)C(F)(F)F)cc4)cc3)c1)C2=O (repeat unit)",
    "glass transition temperature": "266.00 °C"
  },
  {
    "MOLECULE": "*c1ccc(Oc2ccc(C(c3ccc(Oc4ccc(N5C(=O)c6ccc(-c7ccc8c(c7)C(=O)N(*)C8=O)cc6C5=O)cc4)cc3)(C(F)(F)F)C(F)(F)F)cc2)cc1 (repeat unit)",
    "glass transition temperature": "249.50 ± 18 °C"
  },
  {
    "MOLECULE": "*C(=O)c1ccc(N(*)CCCCCCCC)cc1 (repeat unit)",
    "glass transition temperature": "30.00 °C"
  },
  {
    "MOLECULE": "*CC(*)(C)C(=O)OC1CCCC(C)C1 (repeat unit)",
    "glass transition temperature": "89.00 °C"
  },
  {
    "MOLECULE": "*CC(*)(C)C(=O)OCCBr (repeat unit)",
    "glass transition temperature": "52.00 °C"
  },
  {
    "MOLECULE": "*Oc1ccc(S(=O)(=O)c2ccc(Oc3ccc(C(=O)c4cc(Br)cc(C(=O)c5ccc(*)cc5)c4)cc3)cc2)cc1 (repeat unit)",
    "glass transition temperature": "192.00 °C"
  },
  {
    "MOLECULE": "*c1ccc2c(c1)C(=O)N(c1cc(C(=O)O)cc(N3C(=O)c4ccc(C(*)(C(F)(F)F)C(F)(F)F)cc4C3=O)c1)C2=O (repeat unit)",
    "glass transition temperature": "366.50 °C"
  },
  {
    "MOLECULE": "*CC/C=C(/*)C(C)(C)C (repeat unit)",
    "glass transition temperature": "20.00 °C"
  },
  {
    "MOLECULE": "*c1ccc2c(c1)C(=O)N(c1ccc(-c3ccc(N4C(=O)c5ccc(C(*)(C(F)(F)F)C(F)(F)F)cc5C4=O)c(OCCN(CC)c4ccc(C(C#N)=C(C#N)C#N)cc4)c3)cc1OCCN(CC)c1ccc(C(C#N)=C(C#N)C#N)cc1)C2=O (repeat unit)",
    "glass transition temperature": "222.00 °C"
  },
  {
    "MOLECULE": "*C(=O)Nc1ccc(Oc2ccccc2-c2ccccc2Oc2ccc(NC(=O)c3ccc4c(c3)C(=O)N(c3ccc(Oc5ccc(S(=O)(=O)c6ccc(Oc7ccc(N8C(=O)c9ccc(*)cc9C8=O)cc7)cc6)cc5)cc3)C4=O)cc2)cc1 (repeat unit)",
    "glass transition temperature": "236.00 °C"
  },
  {
    "MOLECULE": "*c1cccc(OCCCCCOc2cccc(N3C(=O)c4ccc(-c5ccc6c(c5)C(=O)N(*)C6=O)cc4C3=O)c2)c1 (repeat unit)",
    "glass transition temperature": "165.00 °C"
  },
  {
    "MOLECULE": "*c1cccc(S(=O)(=O)NCCCNS(*)(=O)=O)c1 (repeat unit)",
    "glass transition temperature": "92.00 °C"
  },
  {
    "MOLECULE": "*C(=O)c1ccc2c(c1)C(=O)N(c1ccc(-c3ccc(N4C(=O)c5ccc(*)cc5C4=O)cc3C)c(C)c1)C2=O (repeat unit)",
    "glass transition temperature": "385.00 °C"
  },
  {
    "MOLECULE": "*N=P(*)(C)CCCC (repeat unit)",
    "glass transition temperature": "-51.00 °C"
  },
  {
    "MOLECULE": "*CC(*)c1ccc(CCCCCC)cc1 (repeat unit)",
    "glass transition temperature": "-27.00 °C"
  },
  {
    "MOLECULE": "*CCCCCCOC(=O)C(=O)O* (repeat unit)",
    "glass transition temperature": "66.50 °C"
  },
  {
    "MOLECULE": "*CC(*)c1cc(C(C)(C)C)ccc1C (repeat unit)",
    "glass transition temperature": "87.00 °C"
  },
  {
    "MOLECULE": "*Oc1ccc(C(=O)NNC(=O)c2ccc(C(=O)NNC(=O)c3ccc(OC(=O)c4cccc(C(*)=O)c4)cc3)cc2)cc1 (repeat unit)",
    "glass transition temperature": "175.00 °C"
  },
  {
    "MOLECULE": "*c1ccc(Oc2ccc(Oc3ccc(N4C(=O)c5ccc(Oc6cccc7c6C(=O)N(*)C7=O)cc5C4=O)cc3)cc2)cc1 (repeat unit)",
    "glass transition temperature": "249.00 °C"
  },
  {
    "MOLECULE": "*CC(*)(C)C(=O)OCCC(C)CC(C)(C)C (repeat unit)",
    "glass transition temperature": "1.00 °C"
  },
  {
    "MOLECULE": "*CC(*)C(=O)OCCOc1ccc(C(=O)Oc2ccc(OC(=O)c3ccc(OCCCCC)cc3)cc2)cc1 (repeat unit)",
    "glass transition temperature": "46.00 °C"
  },
  {
    "MOLECULE": "*O[Si](C)(C)COC(=O)CCCCCCCCC(=O)Oc1ccc(S(=O)(=O)c2ccc(Oc3ccc(/C=C4\\CCCC/C(=C\\c5ccc(Oc6ccc(S(=O)(=O)c7ccc(OC(=O)CCCCCCCCC(=O)OC[Si](*)(C)C)cc7)cc6)cc5)C4=O)cc3)cc2)cc1 (repeat unit)",
    "glass transition temperature": "81.00 °C"
  },
  {
    "MOLECULE": "*CC(F)(F)C(F)(F)C(F)(F)COC(=O)c1cccc(C(=O)O*)c1OCCCCC (repeat unit)",
    "glass transition temperature": "17.00 °C"
  },
  {
    "MOLECULE": "*c1ccc(Cc2ccc(N3C(=O)c4ccc(Oc5ccc6c(c5)C(=O)N(*)C6=O)cc4C3=O)c(C(C)(C)C)c2)cc1C(C)(C)C (repeat unit)",
    "glass transition temperature": "216.00 °C"
  },
  {
    "MOLECULE": "*Oc1ccc(OC(=O)c2ccc(Oc3ccc(C(*)=O)cc3)cc2)c2ccccc12 (repeat unit)",
    "glass transition temperature": "166.00 °C"
  },
  {
    "MOLECULE": "*c1ccc(C(=O)Nc2ccc(-c3ccccc3NC(=O)c3ccc(S(*)(=O)=O)cc3)cc2)cc1 (repeat unit)",
    "glass transition temperature": "284.00 °C"
  },
  {
    "MOLECULE": "*C(=O)Nc1ccc(Cc2ccc(NC(=O)c3ccc4c(c3)C(=O)N(c3ccc(/N=N/c5ccc(C)cc5)c(N5C(=O)c6ccc(*)cc6C5=O)c3)C4=O)cc2)cc1 (repeat unit)",
    "glass transition temperature": "268.00 °C"
  },
  {
    "MOLECULE": "*CC(*)C(=O)Oc1ccc(C(=O)OCc2ccccc2)cc1 (repeat unit)",
    "glass transition temperature": "16.2 °C"
  }
]
